Measured values drawn from PubChem BioAssay AID1030 for this set.

- MEASUREMENT_TARGET: Aldehyde dehydrogenase 1A1 (Homo sapiens) (UniProt P00352)
- Sequence (P00352 whole entry, looked up): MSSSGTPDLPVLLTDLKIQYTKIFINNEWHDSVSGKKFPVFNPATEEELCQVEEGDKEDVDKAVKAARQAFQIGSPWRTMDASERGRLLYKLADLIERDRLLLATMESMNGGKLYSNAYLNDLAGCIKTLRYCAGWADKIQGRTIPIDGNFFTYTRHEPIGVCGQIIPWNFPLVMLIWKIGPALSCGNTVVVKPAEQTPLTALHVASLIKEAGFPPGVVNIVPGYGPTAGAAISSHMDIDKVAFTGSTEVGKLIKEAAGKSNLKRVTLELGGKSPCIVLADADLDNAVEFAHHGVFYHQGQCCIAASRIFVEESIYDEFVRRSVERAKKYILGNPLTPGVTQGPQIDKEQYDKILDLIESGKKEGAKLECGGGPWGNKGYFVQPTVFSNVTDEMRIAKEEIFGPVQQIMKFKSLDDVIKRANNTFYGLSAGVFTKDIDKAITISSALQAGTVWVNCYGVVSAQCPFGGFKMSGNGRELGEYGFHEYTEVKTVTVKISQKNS
- TEST_SUMMARY: qHTS Assay for Inhibitors of Aldehyde Dehydrogenase 1 (ALDH1A1);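 for activity, negative = inhibition: plate controls were no enzyme wells and a reference inhibitor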
- PARTICULARS: Purified ALDH1A1, NADH fluorescence, propionaldehyde substrate; series mostly up to 75.3 µM
Hit rate of the full screen: of about 220,000 compounds, about 16,000 (7.3%) were called active. Not shown: some 25% with an inconclusive outcome. Many of the other results were omitted from the sample, so actives are more common in it than they were.
ENDPOINT_LABEL: activity, negative = inhibition

Example cases with answers are listed next.
> print(dat)
                              smiles.record                   endpoint.label                          result
1     Cc1ccc(S(=O)(=O)O[C@H]2CN3CCC2CC3)cc1  activity, negative = inhibition   4.24% [at 13.5 µM] (inactive)
2  CC(=O)O[C@H]1CC[C@@]2(C)[C@@H](CC[C@H]3[C@H]2CC(=O)[C@]2(C)[C@@H]3C[C@@H](N3CC3)[C@H]2C(C)=O)C1  activity, negative = inhibition   6.14% [at 13.5 µM] (inactive)
3            CC(C)CCC1(CCN)C(=O)NC(=O)NC1=O  activity, negative = inhibition  0.154% [at 13.5 µM] (inactive)

Noted activity, negative = inhibition for C[C@@]12CC[C@H](O)C[C@@H]1CC[C@@H]1[C@@H]2CC[C@@]2(C)[C@@H](C3=CC(=O)OC3)[C@H](O)C[C@]12O , tested on Aldehyde dehydrogenase 1A1 (Homo sapiens) (UniProt P00352): 23.8% [at 13.5 µM] (inactive)

----------
- MEASUREMENT_TARGET: Aldehyde dehydrogenase 1A1 (Homo sapiens)
- TEST_SUMMARY: qHTS Assay for Inhibitors of Aldehyde Dehydrogenase 1 (ALDH1A1)
- PARTICULARS: Purified ALDH1A1, NADH fluorescence, propionaldehyde substrate; series mostly up to 75.3 µM
Among all 220,000 compounds or so, about 16,000 (7.3%) were called active. About 25% were inconclusive and are not listed. The call rests on the fitted dose curve; in most records, active means well fitted inhibition curve with a large enough effect (not every such curve was filed as active); inconclusive means small, poorly fitted or top-dose-only effect, or another doubt; inactive means no such curve, though single readings can be large or run the other way. The entries come from a sample that favours actives as a whole.
Can you answer with just one of these options? true (1) (active), false (0) (inactive)

Use these answered entries as a reference point.
COMPOUND	ASSIGNED_CATEGORY
CC(=O)NC(=O)NC(C)Cc1ccccc1 (centres undefined)	false (0)
CNC(C)[C@@H](O)c1ccccc1 (some centres undefined)	false (0)
CC1CCCCN1Cc1cccnc1 (centres undefined)	false (0)
OC(Cn1c2ccccc2c2ccccc21)C[n+]1ccccc1 (centres undefined)	false (0)
CCCCCCN=C(CC)c1c(O)n(CCCC)c(=O)[nH]c1=O	false (0)
Cc1ccc(-n2c(C)cc(/C=C3\C(=O)NC(=O)N(C)C3=O)c2C)cc1C	true (1)

Next compound, please.
Call for entry CCOc1ccc(CN(CCCl)CCCl)cc1C(=O)OC :
false (0)

----------
- MEASUREMENT_TARGET: Aldehyde dehydrogenase 1A1 (Homo sapiens) (UniProt P00352)
- TEST_SUMMARY: qHTS Assay for Inhibitors of Aldehyde Dehydrogenase 1 (ALDH1A1)
- PARTICULARS: Purified ALDH1A1, NADH fluorescence, propionaldehyde substrate; series mostly up to 75.3 µM
Hit rate of the full screen: of about 220,000 compounds, about 16,000 (7.3%) were called active. Roughly 25% stayed inconclusive and do not appear here. Calls follow the shape of the dose curve; as a rule, active = well fitted inhibition curve with a large enough effect (not every such curve was filed as active); inconclusive = small, poorly fitted or top-dose-only effect, or another doubt; inactive = no such curve, though single readings can be large or run the other way. The entries come from a sample that favours actives as a whole.
Can you answer with just one of these options? T for active, F for inactive

COMPOUND	ASSIGNED_CATEGORY
CCN1C[C@]2(COC)C(O)C[C@H](OC)[C@@]34C5C[C@]6(O)C(OC)C(O)[C@](OC(C)=O)(C5C6OC(=O)c5ccccc5)C(C(OC)C23)C14 (some centres not stated)	F

Call for entry CC(C)(O)c1[se]c2ccccc2c1I :
F

Call for entry O=C1NC(=O)N(c2ccccc2)C(=O)/C1=C/c1ccc([N+](=O)[O-])s1 :
T

Call for entry CN1C2C=C(N(C(=O)c3ccc(Cl)cc3)c3ccccc3)CC1CC2 (configuration not stated) :
F

Call for entry N#CCCCl :
F

Call for entry COc1ccc(CCn2c(O)c(C=NCCCn3ccnc3)c(=O)[nH]c2=O)cc1OC :
F

Call for entry CC(C)CC(C)Nc1ccc(Nc2ccccc2)cc1 (configuration not stated) :
T
